- test-details: supercomplex reporter luminescence per Hoechst cell count – Hoechst nuclei count (AID 1645838);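 note: control cybrid cells; higher means more mitochondrial supercomplex formation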
- measurement-context: Cells, luminescence/Hoechst cell count ratio, library stock concentration (final well concentration not given) 400 uM, hits give high values
Among all 2,000 compounds or so, about 100 (5%) were called active. This excerpt belongs to a sample that is enriched for actives.
Values of z-score greater than or equal to 0.2 map to 1; values below map to 0.

compound | discrete-label
COc1cc(N2CCC(N3CCN(C)CC3)CC2)ccc1Nc1ncc(Cl)c(Nc2ccccc2S(=O)(=O)C(C)C)n1 | 1
CN(C)C(=O)c1cc2cnc(Nc3ccc(N4CCNCC4)cn3)nc2n1C1CCCC1 | 1
CC(C)(C)CCN1C[C@@H]2C(CNC(=O)c3cc(Cl)cc(Cl)c3)[C@@H]2C1 (stereo not given in full) | 0
CC(C)OC(=O)CCCC=CCC1C(O)CC(O)C1C=CC(F)(F)COc1ccccc1 (stereo not given) | 0
CCC(C)(C)C(=O)OC1CC(C)C=C2C=CC(C)C(CCC3CC(O)CC(=O)O3)[C@H]21 (stereo not given in full) | 0

// provenance: PubChem BioAssay AID1645838
